# System: 786-0
# assay-details: NCI tumour cell line growth inhibition, 48 h
Calls of active or inactive are those of the source. No stated cut-off is given here; in the data, active = GI50 up to about 1.1 µM and inactive = higher.
Use one of these outcomes when replying: Y (active), N (inactive)

input: Hey, what did the test say about COC(=O)CN(CC(=O)NCCCBr)C1CCCCC1N(CC(=O)OC)CC(=O)OC (stereo not given) ?
output: N

input: Called result for O=c1[nH]c(=O)n(C2OC(CO)C(O)C2O)cc1/N=N/NCc1ccccc1 (stereo not given)
output: N

input: Hi team, can someone confirm the assay call for O=C1Nc2ccc([N+](=O)[O-])cc2/C1=N/NC(=S)Nc1ccc([N+](=O)[O-])cc1 ?
output: N

input: I'd appreciate the recorded outcome for CC1(C)[C@@H]2C[C@H]1C(Cc1cccc(C[C@H]3c4cc(-c5ccccn5)ncc4[C@H]4C[C@@H]3C4(C)C)c1)c1cc(-c3ccccn3)ncc12 (stereo not given in full) from this test.
output: Y

input: Per the assay record, what outcome was assigned to Cc1[nH]n(-c2ncc(C(=O)O)c(=O)[nH]2)c(=O)c1CCO ?
output: N
